biological target: Neuraminidase (from Clostridium perfringens, Type V) immobilized on magnetic beads (NA-MBs) (Clostridium perfringens, UniProt A0A0H2YQR1); experiment: biochemical; details: 0.05 h, read-out: Inhibitory ratio (%)
Sequence (A0A0H2YQR1 42-694 limits assumed): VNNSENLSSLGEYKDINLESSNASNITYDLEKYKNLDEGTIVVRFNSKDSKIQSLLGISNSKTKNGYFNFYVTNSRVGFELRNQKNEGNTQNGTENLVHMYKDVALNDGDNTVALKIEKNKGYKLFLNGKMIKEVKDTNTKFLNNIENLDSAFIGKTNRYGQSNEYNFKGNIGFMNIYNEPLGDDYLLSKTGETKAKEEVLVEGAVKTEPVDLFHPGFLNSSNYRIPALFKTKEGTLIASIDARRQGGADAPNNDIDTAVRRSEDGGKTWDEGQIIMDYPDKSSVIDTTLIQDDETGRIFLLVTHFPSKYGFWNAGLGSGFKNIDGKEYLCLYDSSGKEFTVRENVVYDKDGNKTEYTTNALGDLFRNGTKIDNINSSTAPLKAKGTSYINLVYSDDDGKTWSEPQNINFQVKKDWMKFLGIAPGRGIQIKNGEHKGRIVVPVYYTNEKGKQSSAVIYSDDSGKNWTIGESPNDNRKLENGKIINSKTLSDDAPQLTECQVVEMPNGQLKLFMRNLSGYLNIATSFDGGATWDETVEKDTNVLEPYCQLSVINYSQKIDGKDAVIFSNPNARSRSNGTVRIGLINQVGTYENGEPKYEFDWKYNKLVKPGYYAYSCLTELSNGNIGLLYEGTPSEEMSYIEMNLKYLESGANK
This listing pairs compounds with measured inhibition at 50 µM.

O=C1CCC[C@@H]2[C@H]3CCC[N+]4([O-])CCC[C@@H](CN12)[C@@H]34 (stereo partly drawn)    < 1%
Nc1cc[nH]c(=O)n1    < 1%

Here's the next entry for you.
Q: Fill in reported inhibition at 50 µM for this entry: COc1ccc2c3c1O[C@H]1C[C@@H](O)C=C[C@@]31CCN(C)C2 [Galantamine, reference compound]
Ans: < 1%

###

This listing pairs compounds with measured pIC50.
target: Neuraminidase (from Clostridium perfringens, Type V) immobilized on magnetic beads (NA-MBs) (Clostridium perfringens, UniProt A0A0H2YQR1)
Scale explanation: pIC50 corresponds to minus log10 of a concentration expressed in moles per litre.

O=c1cc(-c2ccc(O)c(O)c2)oc2cc(O[C@@H]3O[C@H](CO)[C@@H](O)[C@H](O)[C@H]3O)cc(O)c12 [luteolin-7-O-β-D-glucoside]    4.12
O=C(/C=C/c1ccc(O)c(O)c1)OC1CC(O)(C(=O)O)CC(OC(=O)/C=C/c2ccc(O)c(O)c2)C1O (stereo not drawn)    4.21

Here's the next entry for you.
Q: Fill in reported pIC50 for this entry: O=C(/C=C/c1ccc(O)c(O)c1)OC1CC(O)(C(=O)O)CC(O)C1OC(=O)/C=C/c1ccc(O)c(O)c1 (stereo not drawn)
Ans: 4.17

###

This listing pairs compounds with measured inhibition at 50 µM.
target: Neuraminidase (from Clostridium perfringens, Type V) immobilized on magnetic beads (NA-MBs) (Clostridium perfringens, UniProt A0A0H2YQR1); assay: biochemical; conditions: 0.05 h, read-out: Inhibitory ratio (%)

O[C@H]1[C@H]2c3cc4c(cc3CN3CCC(=C[C@@H]1O)[C@H]23)OCO4    < 1%
Nc1nc2c(ncn2[C@@H]2O[C@H](CO)[C@@H](O)[C@H]2O)c(=O)[nH]1    < 1%

Here's the next entry for you.
Q: Fill in reported inhibition at 50 µM for this entry: `Cc1c[nH]c(=O)[nH]c1=O`
Ans: < 1%
